- Subject of test: Beta-3 adrenergic receptor (Homo sapiens, UniProt P13945)
- Sequence (P13945 whole entry): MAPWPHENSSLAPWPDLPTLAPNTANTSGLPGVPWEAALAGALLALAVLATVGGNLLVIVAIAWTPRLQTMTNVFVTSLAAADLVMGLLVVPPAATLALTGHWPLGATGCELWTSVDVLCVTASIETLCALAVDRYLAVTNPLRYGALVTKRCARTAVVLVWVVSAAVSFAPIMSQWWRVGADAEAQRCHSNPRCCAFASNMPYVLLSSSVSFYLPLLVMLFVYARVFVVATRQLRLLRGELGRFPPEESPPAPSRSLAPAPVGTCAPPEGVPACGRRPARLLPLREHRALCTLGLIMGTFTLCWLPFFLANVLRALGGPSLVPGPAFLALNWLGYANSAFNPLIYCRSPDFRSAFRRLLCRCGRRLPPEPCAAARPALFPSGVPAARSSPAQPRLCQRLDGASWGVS
- Run description: Displacement of [3H]-CGP12177 from human recombinant adrenergic Beta3 receptor expressed in Flp-In HEK cells after 90 mins by microbeta scintillation counting method
pKi: −log10 of the molar value.
Recorded metric: pKi

{"columns": ["Compound", "Test value"],
 "data": [
  ["C[C@@]12CN(c3ccccc3)c3ccccc3[C@@H]1CCN2 (racemic)", "< 5.00"],
  ["CC[C@H]1c2cc(OC)ccc2CC[C@@]1(C)N (racemic)", "< 5.00"],
  ["CC[C@H]1c2cc(C)ccc2OC[C@@]1(C)N (racemic)", "< 5.00"],
  ["COc1cc(OC)c2c(c1)OC[C@@]1(C)NCC[C@@H]21 (racemic)", "< 5.00"],
  ["CC[C@H]1c2ccccc2N(c2ccccc2)C[C@@]1(C)N (racemic)", 6.00]
]}
